Target Or System: T1, human GIP receptor (human, UniProt P48546 22-466)
T1 sequence (looked up): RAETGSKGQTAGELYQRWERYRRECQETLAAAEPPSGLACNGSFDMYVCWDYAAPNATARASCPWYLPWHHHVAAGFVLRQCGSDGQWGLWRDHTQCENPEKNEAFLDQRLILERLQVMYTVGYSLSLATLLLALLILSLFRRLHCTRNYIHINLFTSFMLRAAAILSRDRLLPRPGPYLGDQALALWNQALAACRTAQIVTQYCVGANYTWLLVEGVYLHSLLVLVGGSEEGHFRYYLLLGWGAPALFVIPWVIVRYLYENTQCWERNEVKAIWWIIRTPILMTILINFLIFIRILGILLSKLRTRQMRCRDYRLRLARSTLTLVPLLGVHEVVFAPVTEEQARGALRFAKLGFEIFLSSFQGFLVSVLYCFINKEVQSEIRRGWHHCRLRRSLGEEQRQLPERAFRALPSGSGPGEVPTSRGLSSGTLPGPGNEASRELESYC
Test: cell-based or functional assay
Doc: threshold 20 pM (exclusive). Items with cAMP EC50, Batch 2 beneath it return Y; others return N.

As a guide, the following entries are already answered.
{"Binder": "IP024 (Fc fusion) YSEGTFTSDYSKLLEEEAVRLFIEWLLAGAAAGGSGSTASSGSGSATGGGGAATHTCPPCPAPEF", "Group Label": "Y"}
{"Binder": "IP200 (Fc fusion) YSQGTFTSDYSKILEEEAVRLFIEWLVKGPAAAGGSGSTASSGSGSATGGGGAATHTCPPCPAPEF", "Group Label": "Y"}
{"Binder": "IP280 (Fc fusion) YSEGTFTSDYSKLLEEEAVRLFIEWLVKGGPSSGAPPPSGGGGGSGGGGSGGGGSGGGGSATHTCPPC", "Group Label": "Y"}
{"Binder": "IP296 (Fc fusion) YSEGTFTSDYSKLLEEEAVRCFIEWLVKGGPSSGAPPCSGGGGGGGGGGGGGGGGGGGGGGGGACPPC", "Group Label": "N"}
{"Binder": "IP324 (Fc fusion) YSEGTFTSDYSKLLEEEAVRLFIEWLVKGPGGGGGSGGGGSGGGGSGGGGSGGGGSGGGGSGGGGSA", "Group Label": "Y"}

Q: Report whether reported cAMP EC50, Batch 2 is lower than 20 pM (strictly) for IP149 (Fc fusion) YSQGTFTSDYSKLLEEEAVRLFIEWLVKGPAPPGGSGSTASSGSGSATGGGGAATHTCPPCPAPEF
Ans: Y

Q: Here's an entry: IP328 (Fc fusion) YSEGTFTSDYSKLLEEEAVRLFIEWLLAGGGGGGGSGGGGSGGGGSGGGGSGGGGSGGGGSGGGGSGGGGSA . Is its cAMP EC50, Batch 2 below 20 pM?
Ans: N

Q: Identify whether the binder IP295 (Fc fusion) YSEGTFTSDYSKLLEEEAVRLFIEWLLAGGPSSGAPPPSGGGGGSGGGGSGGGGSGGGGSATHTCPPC records cAMP EC50, Batch 2 below 20 pM.
Ans: Y

Q: Could you please tell me whether cAMP EC50, Batch 2 recorded for IP201 (Fc fusion) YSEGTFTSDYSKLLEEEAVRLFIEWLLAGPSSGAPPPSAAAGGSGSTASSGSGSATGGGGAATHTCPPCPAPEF is less than 20 pM?
Ans: N

Q: Problem: For the binder IP274 (Fc fusion) YSEGTFTSDYSKLLEKEAVRLFIEWLLKGPGGGGGSGGGGSGGGGSGGGGSATHTCPPC , is cAMP EC50, Batch 2 under 20 pM?
Ans: Y
